Test: Plasma concentration in rat at 5 mg/kg, po after 4 hrs
Type: ADME, organism-based
Set-up: dose 5 mg/kg, route oral

| compound | result-units | concentration at 4 h |
| --- | --- | --- |
| O=C(NCc1ccc(Cl)cc1Cl)c1ccc(OCC(F)(F)F)nc1 | nM | 2000 |
| CS(=O)(=O)c1ccc(CNC(=O)c2ccc(OCC(F)(F)F)nc2)c(Cl)c1 | nM | 6000 |
| CS(=O)(=O)c1ccc(C(CCNC(=O)c2ccc(C#N)nc2)c2ccc(F)cc2)cc1 (centres undefined) | nM | 3600 |
| O=C(NCCC(c1ccc(F)cc1)c1ccc(F)cc1)c1ccc(OCC(F)(F)F)nc1 | nM | 100 |

Reference source: ChEMBL document CHEMBL2069173
